# assay_protocol: inhibition of MSI-1436 binding
# condition_parameters: 3H-MSI-1436 at 20 μg/mL
Binary call on % Inhib. of MSI-1436 Binding @ 100 μg/mL: Yes from 20% upward, No beneath that.

Example results:
{"molecule": "COC(=O)CCC(C)[C@H]1CCC2C3C(CC[C@@]21C)[C@@]1(C)CC[C@@H](NCCCNCCCCN)C[C@H]1C[C@H]3O (stereo partly shown) [drawing 116]", "category_label": "No"}
{"molecule": "COC(=O)CCC(C)[C@H]1CCC2C3C(CC[C@@]21C)[C@@]1(C)CC[C@@H](NCCCNCCCCNCCCN)C[C@@H]1C[C@H]3O (stereo partly shown)", "category_label": "No"}
{"molecule": "COC(=O)CC[C@@H](C)[C@H]1CC[C@H]2[C@@H]3C[C@@H](O)[C@H]4C[C@@H](NCCCN5CCN(CCCN)CC5)CC[C@]4(C)[C@H]3CC[C@]12C [Compound 469]", "category_label": "Yes"}

Is % Inhib. of MSI-1436 Binding @ 100 μg/mL at least 20%? Consider CC(CCC(=O)O)[C@H]1CCC2C3C[C@@H](O)[C@H]4C[C@@H](NCCCNCCCCNCCCN)CC[C@]4(C)C3CC[C@@]21C (stereo partly shown) No

Input COC(=O)CCC(C)[C@H]1CCC2C3CC[C@H]4C[C@@H](NCCCNCCCCNCCCN)CC[C@]4(C)C3CC[C@@]21C (stereo partly shown) [drawing 103] No

Input COC(=O)CCC(C)[C@H]1CCC2C3C[C@@H](O)[C@H]4C[C@@H](NCCCNCCCCNCCCN)CC[C@]4(C)C3CC[C@@]21C (stereo partly shown) Yes

Input COC(=O)CCC(C)[C@H]1CCC2C3C(CC[C@@]21C)[C@@]1(C)CC[C@H](NCCCNCCCCNCCCN)C[C@@H]1C[C@H]3O (stereo partly shown) [drawing 115] Yes

Input COC(=O)CC[C@@H](C)[C@H]1CC[C@H]2[C@@H]3CC[C@@H]4C[C@H](NCCCNCCCCNCCCN)CC[C@]4(C)[C@H]3CC[C@]12C [Compound 569] Yes

Input COC(=O)CCC(C)[C@H]1CCC2C3C[C@@H](O)[C@H]4C[C@@H](NCCCNCCCCN)CC[C@]4(C)C3CC[C@@]21C (stereo partly shown) Yes

Input COC(=O)CCC(C)[C@H]1CCC2C3C(CC[C@@]21C)[C@@]1(C)CC[C@H](NCCCNCCCCNCCCN)C[C@H]1C[C@H]3O (stereo partly shown) No

Input CC(C)[C@@H](CC[C@@H](C)[C@H]1CC[C@H]2[C@@H]3[C@H](O)C[C@H]4C[C@@H](NCCCNCCCCNCCCN)CC[C@]4(C)[C@H]3CC[C@]12C)OS(=O)(=O)O [Compound 1436, reference compound] Yes

Input CC(CCC(CO)(OS(=O)(=O)O)C(C)C)[C@H]1CCC2C3C(CC[C@@]21C)[C@@]1(C)CC[C@H](NCCCNCCCCN)C[C@@H]1C[C@H]3O (stereo partly shown) [drawing 99] No

Input COC(=O)CCC(C)[C@H]1CCC2C3CC[C@H]4C[C@H](NCCCNCCCCNCCCN)CC[C@]4(C)C3CC[C@@]21C (stereo partly shown) [drawing 118] Yes
